Cytochrome P450 2C9 (Homo sapiens): reported AC50 for various molecules.
Sequence (P11712 whole entry): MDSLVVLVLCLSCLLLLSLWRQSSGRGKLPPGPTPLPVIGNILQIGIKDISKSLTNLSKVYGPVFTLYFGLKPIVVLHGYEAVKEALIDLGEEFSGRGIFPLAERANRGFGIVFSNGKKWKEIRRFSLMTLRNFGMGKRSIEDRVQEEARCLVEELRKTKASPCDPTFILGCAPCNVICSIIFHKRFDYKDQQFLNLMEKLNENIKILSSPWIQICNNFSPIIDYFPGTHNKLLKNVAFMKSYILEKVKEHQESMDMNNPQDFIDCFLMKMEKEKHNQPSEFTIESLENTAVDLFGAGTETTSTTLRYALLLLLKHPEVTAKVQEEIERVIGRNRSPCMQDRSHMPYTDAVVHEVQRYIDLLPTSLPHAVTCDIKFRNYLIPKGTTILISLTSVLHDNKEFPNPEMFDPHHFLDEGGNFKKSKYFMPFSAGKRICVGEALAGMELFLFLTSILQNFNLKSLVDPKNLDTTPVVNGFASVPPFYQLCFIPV

molecule: Cc1cccc(-n2cnc(C(=O)NC3CCCCCC3)c2)n1
AC50: inconclusive
//
molecule: O=C(CCN1C(=O)C2C3C=CC(C3)C2C1=O)NCCN1CCCc2ccccc21 (stereo unspecified)
AC50: inconclusive
//
molecule: C[C@@H](Cc1cccc(C(F)(F)F)c1)NCCOC(=O)c1ccccc1
AC50: inconclusive
//
molecule: Cc1cc2c(cc1S(N)(=O)=O)S(=O)(=O)CCC2
AC50: inconclusive
//
molecule: CCOc1ccc(NC(=O)c2oc3ccccc3c2NC(=O)CC)cc1
AC50: inconclusive
//
molecule: CC(=O)N(C[C@@H](C)C(=O)O)c1c(I)cc(I)c(N)c1I
AC50: inconclusive

---

- target: UniProt:Q9HC16
- Sequence (Q9HC16 whole entry): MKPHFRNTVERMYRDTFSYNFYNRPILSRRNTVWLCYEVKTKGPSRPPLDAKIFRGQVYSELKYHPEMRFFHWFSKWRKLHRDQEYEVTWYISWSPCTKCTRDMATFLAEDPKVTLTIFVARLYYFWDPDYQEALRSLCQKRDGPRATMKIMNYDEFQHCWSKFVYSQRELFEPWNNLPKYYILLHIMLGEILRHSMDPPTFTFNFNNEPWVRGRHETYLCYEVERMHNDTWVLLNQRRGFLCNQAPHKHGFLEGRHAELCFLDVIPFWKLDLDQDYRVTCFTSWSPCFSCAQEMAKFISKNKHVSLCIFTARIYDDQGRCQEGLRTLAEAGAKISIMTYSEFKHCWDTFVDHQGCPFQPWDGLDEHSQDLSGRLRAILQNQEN
- Format: functional
Calls of active or inactive are those of the source.
Outcome codes: active, inactive

compound: CCN1CCN(c2ccc(S(=O)(=O)N3CCCCC3)cc2NC(=O)/C=C/c2ccc(F)cc2)CC1
assigned_category: active
--
compound: CCSCc1nnc(SCC(=O)Nc2ccc(OC)cc2)n1C
assigned_category: active
--
compound: O=C(NCCc1ccccc1)c1cc2ncc(Br)cn2n1
assigned_category: inactive
--
compound: CCc1noc(C)c1C(=O)NNC(=O)c1cc(OC)c(OC)c(OC)c1
assigned_category: active
--
compound: C[n+]1ccc(-c2ccncc2)cc1
assigned_category: active
--
compound: CC(=O)OC1C2CCC1C([N+]1(C)CCCCC1)CC2 (configuration not stated)
assigned_category: active
--
compound: O=[N+]([O-])c1ccccc1/C=C/C=N/Nc1nc(N2CCCCC2)nc(N2CCCCC2)n1
assigned_category: active

---

Overview of recorded EC50 for various compounds
- test_description: inhibitors of intracellular T. cruzi replication, confirmation, NIH3T3 host cells, beta-gal luminescence (AID 2044);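 note: intracellular parasites grown in NIH/3T3 mouse fibroblasts as host cells; luminescent beta-galactosidase reporter signal from transgenic T. cruzi replicating inside host cells; inhibitors lower the luminescence signal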
- Assay type: functional, cell-based
Active and inactive are the calls of the source.
property_measured: EC50

compound: COc1ccc(COc2cc(-c3cccc(OC)c3)nc3ccc(NC(C)=O)cc23)cc1
measured_value: 728 nM (active)
--
compound: COc1ccc(C(=O)N/N=C/c2cc(Br)ccc2O)cc1OC
measured_value: 3760 nM (active)
--
compound: c1ccc2c(c1)C(=NC1CCCCC1)N=C2NC1CCCCC1
measured_value: 1270 nM (active)
--
compound: CCN(CC)S(=O)(=O)c1cccc(C(=O)/C=C2/N(C)c3ccccc3C2(C)C)c1
measured_value: 739 nM (active)
--
compound: O=C(NCC(c1cccnc1)N1CCN(c2ccccc2)CC1)c1ccco1 (stereo not given)
measured_value: 998 nM (active)
--
compound: O=C(CCN1C(=O)/C(=C/c2ccccc2)SC1=S)NCCCN1CCOCC1
measured_value: 2620 nM (active)
--
compound: COc1ccc(C(=O)C2CCCN(Cc3c(C)[nH]c4ccccc34)C2)c(OC)c1 (stereo not given)
measured_value: 299 nM (active)
--
compound: O=C(CN1CCCCCCC1)N/N=C/c1ccc([N+](=O)[O-])o1
measured_value: 1340 nM (active)
--
compound: COc1cc(-c2cc(C(=O)Nc3ccc(S(=O)(=O)NCc4ccco4)cc3)c3ccccc3n2)cc(OC)c1OC
measured_value: 1620 nM (active)
--
compound: CC(=O)O[C@@]12CO[C@@H]1C[C@H](O)[C@@]1(C)C(=O)[C@H](O)C3=C(C)[C@@H](OC(=O)[C@H](O)[C@@H](NC(=O)c4ccccc4)c4ccccc4)C[C@@](O)([C@@H](OC(=O)c4ccccc4)C12)C3(C)C (stereo not given in full)
measured_value: 132 nM (active)

---

- target: Eukaryotic translation initiation factor 4E (Mus musculus, UniProt P63073)
- Sequence (P63073 whole entry): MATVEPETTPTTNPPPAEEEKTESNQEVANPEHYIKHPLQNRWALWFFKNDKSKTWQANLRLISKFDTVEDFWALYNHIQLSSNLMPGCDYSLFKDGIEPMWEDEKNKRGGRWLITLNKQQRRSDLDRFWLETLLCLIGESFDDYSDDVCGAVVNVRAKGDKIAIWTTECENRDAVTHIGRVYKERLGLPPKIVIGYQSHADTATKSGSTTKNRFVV
- test_description: eIF4E–eIF4G protein interaction inhibitors, dose response, biochemical, TR-FRET (AID 855);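 note: potency for disrupting eIF4E binding to eIF4GI seen as loss of FRET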
- Format: functional
Activity calls are given as the source filed them.
Outcome codes: 1 (yes) for active, 0 (no) for inactive

chem_smiles: Cc1ccc(NC(=O)CN2C(=O)N/C(=C/c3cc(C)n(-c4cccc(C(=O)O)c4)c3C)C2=O)cc1
assigned_category: 0 (no)
//
chem_smiles: CC12CC3(C)CC(C)(C1)CC(C(=O)NC(=S)N1CCCC1)(C2)C3
assigned_category: 0 (no)
//
chem_smiles: O=[N+]([O-])c1cc(/C=N\Nc2nccs2)ccc1O
assigned_category: 1 (yes)
//
chem_smiles: COc1cc(/C=C2\SC(=O)N(c3cccc(Cl)c3)C2=O)cc([N+](=O)[O-])c1O
assigned_category: 1 (yes)
//
chem_smiles: Cc1ccc(C23CC4CC(CC(CN)(C4)C2)C3)cc1
assigned_category: 0 (no)
//
chem_smiles: Cc1cccc(-n2cnc(C(=O)NC3CCCCCC3)c2)n1
assigned_category: 0 (no)
//
chem_smiles: CCCCOC(=O)Nc1nnc(SCCOc2ccc(C)cc2)s1
assigned_category: 0 (no)
//
chem_smiles: O=C1NC(=S)N(c2ccc(F)cc2)C(=O)/C1=C\c1ccoc1
assigned_category: 0 (no)

---

- System: Streptococcus
- test_description: Group A Streptococcus viability loss, dose response, counter-screen for streptokinase expression inhibitor project, luminescence, BacTiterGlo (AID 1915);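 note: potency for reduction of bacterial viability or growth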
- Type: functional, organism-based
Activity calls are given as the source filed them.

compound: N#C/C(=N/Nc1ccc(OC(F)(F)F)cc1)C(N)=S
target: Streptococcus
EC50: > 150 µM (not active)
--
compound: COc1ccc2oc(=O)c(-c3csc(Nc4ccc(O)cc4)n3)cc2c1
target: Streptococcus
EC50: 13.8 µM (active)
--
compound: O=C(CSc1ccc(Cl)cc1)NC1=NN(c2ccccc2)C(=O)C1
target: Streptococcus
EC50: 7.17 µM (active)
--
compound: Oc1cc2ccccc2cc1-c1nnc(S)o1
target: Streptococcus
EC50: > 150 µM (not active)
--
compound: O=C1c2ccccc2CCC12N=NCC2c1ccc(Br)cc1 (stereo unspecified)
target: Streptococcus
EC50: > 150 µM (not active)
--
compound: CCCCSc1ccc2nc(-c3ccc(C#N)cc3)cn2c1
target: Streptococcus
EC50: 14.4 µM (active)

---

Observed AC50 for Cytochrome P450 1A2 (Homo sapiens, UniProt P05177), reported per entry below.
Calls of active or inactive are those of the source.

compound: COC(=O)[C@@]1(Cc2ccc(F)cc2)[C@H]2c3cc(C(=O)N(C)C)n(Cc4ccc(OC)c(OC)c4)c3C[C@H]2CN1C(=O)c1ccccc1
AC50: 31.6 µM (inconclusive)
//
compound: CCNc1ncc2nc(-c3cccs3)c(=O)n(Cc3cccc(OC)c3)c2n1
AC50: 0.126 µM (inconclusive)
//
compound: CCOC(=O)CSCC(NC(=O)OC(C)(C)C)C(=O)OCC (centres undefined)
AC50: 25.1 µM (inconclusive)
//
compound: N=C1/C(=C\c2ccc(SCc3ccco3)o2)C(=O)N=C2SC=NN12
AC50: 1.58 µM (inconclusive)
//
compound: C[C@@H](Cc1ccc(Cl)cc1Cl)NO
AC50: 0.251 µM (active)
//
compound: O=C(O)c1ccccc1C(=O)NNc1ccc(Cl)cc1
AC50: 6.31 µM (inconclusive)
//
compound: CC#C[C@]1(O)CC[C@H]2[C@@H]3CCC4=CC(=O)CCC4=C3[C@H](c3ccc(N(C)C)cc3)C[C@@]21C
AC50: 25.1 µM (inconclusive)
//
compound: O=C(CCN1C(=O)C2C3C=CC(C3)C2C1=O)NCCN1CCCc2ccccc21 (centres undefined)
AC50: 10 µM (inconclusive)
//
compound: Cc1cccc2cc(CN(Cc3ccccc3)C(=O)c3cccc(F)c3)c(Cl)nc12
AC50: 11.2 µM (inconclusive)

---

- target: UniProtKB Q13285
- Sequence (Q13285 whole entry): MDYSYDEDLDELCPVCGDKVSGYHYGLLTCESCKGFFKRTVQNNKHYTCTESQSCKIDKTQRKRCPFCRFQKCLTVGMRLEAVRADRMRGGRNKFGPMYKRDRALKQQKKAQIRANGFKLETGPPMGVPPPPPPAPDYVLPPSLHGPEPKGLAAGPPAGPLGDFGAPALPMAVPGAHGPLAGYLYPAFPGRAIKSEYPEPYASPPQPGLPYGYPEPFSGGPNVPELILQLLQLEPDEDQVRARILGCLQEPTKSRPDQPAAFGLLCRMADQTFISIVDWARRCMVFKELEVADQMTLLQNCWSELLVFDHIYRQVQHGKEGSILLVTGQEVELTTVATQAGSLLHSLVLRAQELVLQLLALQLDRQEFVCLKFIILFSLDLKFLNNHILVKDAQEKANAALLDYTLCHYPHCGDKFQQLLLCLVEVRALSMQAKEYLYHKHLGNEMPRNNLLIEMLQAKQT
- test_description: Counterscreen for inverse agonists of the liver receptor homolog-1 (LRH-1; NR5A2): Luminescence-based cell-based high throughput dose response assay to identify inverse agonists of the Steroidogenic Factor 1 Nuclear Receptor (SF1; NR5A1).
- Assay type: functional
The source made the active and inactive calls.
Classes used: active, inactive

compound: CC(C)Oc1cccc(-c2cc(C(=O)NN3CCOCC3)c3ccccc3n2)c1
target: UniProtKB Q13285
assigned_category: inactive

compound: COc1ccc(CCNC(=O)CSc2nn3c(=O)c(C)nnc3s2)cc1OC
target: UniProtKB Q13285
assigned_category: inactive

compound: COc1ccc(CCNC(=O)CN2C(=O)NC3(CCCCC3C)C2=O)cc1 (stereo not given)
target: UniProtKB Q13285
assigned_category: active

compound: CCCOc1ccc(NC(=O)CC2C(=O)N(C)C(=S)N2Cc2ccc3c(c2)OCO3)cc1 (stereo not given)
target: UniProtKB Q13285
assigned_category: active

compound: O=C(COC(=O)CCN1C(=O)C2CC=CCC2C1=O)NCCc1ccccc1 (stereo not given)
target: UniProtKB Q13285
assigned_category: inactive

---

- test_description: cytotoxicity toward NIH3T3 fibroblasts, dose response, counter-screen, cell-based, ATP luminescence, mouse fibroblasts (AID 2010);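 note: cells exposed to compound for about 90 hours before reading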
- Format: functional
The source made the active and inactive calls.
Reported EC50 values for a set of compounds
property_measured: EC50

compound: COc1cc(OC)cc(-c2cc3nc(C)c(CCC(=O)NC(C)CCc4ccco4)c(C)n3n2)c1 (stereo unspecified)
property_measured: EC50
measured_value: > 30 µM (not active)
//
compound: COc1ccc(C(=O)C2CCCN(Cc3c(C)[nH]c4ccccc34)C2)c(OC)c1 (stereo unspecified)
property_measured: EC50
measured_value: > 60 µM (not active)
//
compound: CCN(CC)S(=O)(=O)c1cccc(C(=O)/C=C2/N(C)c3ccccc3C2(C)C)c1
property_measured: EC50
measured_value: > 60 µM (inconclusive)
//
compound: O=C(NCC(c1cccnc1)N1CCN(c2ccccc2)CC1)c1ccco1 (stereo unspecified)
property_measured: EC50
measured_value: > 60 µM (not active)
//
compound: COc1cc(-c2cc(C(=O)Nc3ccc(S(=O)(=O)NCc4ccco4)cc3)c3ccccc3n2)cc(OC)c1OC
property_measured: EC50
measured_value: > 60 µM (not active)
//
compound: O=c1cc(C(Cl)(Cl)Cl)oc2c1ccc1ccccc12
property_measured: EC50
measured_value: 3.32 µM (active)
